# target.or.system: Chromobox protein homolog 7 (Homo sapiens)
# test.method.notes: blockers of CBX7 binding to H3K27me3 peptide – biochemical, AlphaScreen, primary screen (AID 1224903)
# stated.conditions: AlphaScreen His6-CBX7 / biotin-H3K27me3 peptide binding
Screen size: about 66,000 compounds; about 720 (1.1%) were called active. No stated cut-off is given here; in the data, active means normalised signal below about 0.5; inactive means the rest, inconclusive results apart. Shown is part of a subset that was picked to be rich in actives.
One label from this list, please: active, inactive

Which outcome did this test record for the molecule Cc1ccc(C(=O)N2CC(=O)Nc3ccc(F)cc3C2c2ccc(F)cc2)cc1 (configuration not stated) ?
inactive

Dear all, I need the recorded test outcome for COc1ccc(Cl)cc1C1CC(=O)Nc2cc3c(cc21)OCO3 (configuration not stated) , thank you.
inactive

Could you kindly confirm the outcome this assay logged for CCC(CO)NCC(O)COCc1ccc(Cl)cc1 (configuration not stated) ?
inactive

Dear all, I need the recorded test outcome for Cc1cc(C)nc(N=C(N)N2CCC(Cc3ccccc3)CC2)n1 , thank you.
inactive

How was Cc1ccc(C(=O)CN2C3=NCCN3c3ccccc32)cc1 classified in this test?
inactive

Any idea what this test logged for COc1ccc2c(c1OC)C(=O)N(c1ccc(O)cc1)C2 ?
inactive

Please indicate how the test categorized Cc1cc(Br)ccc1NC(=O)CNC(=O)Cn1c(C)cc2ccccc2c1=O .
inactive

Could you please tell me the result logged for Cc1ccc(C(C)C)c(OCc2nnc(NC(=O)c3ccc(Br)cc3)s2)c1 in this assay?
inactive

Record request — test call for Cc1ccc2c(c1)C(c1ccc(F)cc1)N(C(=O)c1ccc(C)c(C)c1)CC(=O)N2 (configuration not stated)
active

Lab log entry: CCc1ccc(-n2cnc3cc(C(=O)NC4CCCC4)ccc32)cc1 — outcome as called in the assay?
inactive

// param item: Cc1cccc(CCNC(=O)CCCNS(=O)(=O)c2ccc3c(c2)CCC(=O)N3)c1 ; yields the recorded call
inactive

For O=C(CSCc1cnn(-c2ccccc2)c1-n1cccc1)NC1CC1 , what call appears in the results of this test?
inactive

For this molecule, state the assay outcome: Cc1ccc(NC(=O)CCc2nnc3ccc(NCc4ccccc4Cl)nn23)cc1
inactive

State the result this test recorded for COc1ccc(CCNC(=O)CCc2c(C)nc3c(c(C)nn3-c3ccc(C)cc3)c2C)cc1OC .
inactive

Identify the outcome logged in this assay for the molecule shown: CCOC(=O)c1cnc2cc(Cl)c(OC)cc2c1Nc1ccc(C(F)(F)F)cc1
inactive

Hi team, can someone confirm the assay call for CCc1c(-c2ccccc2)nc2ccccc2c1C(=O)NCC1COc2ccccc2O1 (configuration not stated) ?
inactive

How was Clc1ccc2nc(-c3ccsc3)c(NC(c3ccccc3)c3ccccc3)n2c1 classified in this test?
inactive

Which outcome did this test record for the molecule Cc1sc2ncnc(NCC3(c4ccccc4)CCCC3)c2c1C ?
inactive

Please state the recorded outcome for this molecule: COc1ccc(OC)c(NC(=O)CCc2c(C)nc3c(c(C)nn3-c3ccc(C)cc3)c2C)c1
inactive

Look up the recorded call for Cc1ccc2c(c1)C(c1ccc(F)cc1)N(C(=O)c1ccc(S(=O)(=O)N3CCCC3)cc1)CC(=O)N2 (configuration not stated) in this test.
inactive

What call does the record list for Cc1cc(=O)n2nc(N3CCCC(C(=O)N4CCCCC4)C3)sc2n1 (configuration not stated) ?
inactive

Could you please tell me the result logged for Fc1cnc(Nc2ccc(Cl)cc2)nc1Nc1ccc(Cl)cc1 in this assay?
inactive

# credit: PubChem BioAssay AID1224903
